All values here come from patent US12012403B2.

Entries annotated with measured IC50
# TESTED_ON: human CCR6 (Homo sapiens)
# EXPERIMENT_SUMMARY: Migration (chemotaxis) assay, hCCR6-transfected Ba/F3 cells toward CCL20
# TEST_CONDITIONS: hCCR6-transfected Ba/F3 cells in human serum; recombinant human CCL20 10 nM; 37° C. 45 minutes; read-out: Potency (IC50 value in the migration assay)

Completed entries (count: 3):
MOLECULE	TESTED_ON	IC50
CS(=O)(=O)NC1CCN(c2ccc(S(=O)(=O)N3CCC(Nc4ccc(C(F)(F)F)cn4)CC3)cc2)CC1	human CCR6 (Homo sapiens)	5 to 100 nM
CC(=O)NCCn1cc(C#N)c2cc(-c3ccc(S(=O)(=O)N4CCC(Nc5ccc(C(F)(F)F)cn5)CC4)cc3)cnc21	human CCR6 (Homo sapiens)	< 5 nM
NC(=O)N1CCc2nc(-c3ccc(S(=O)(=O)N4CCC(Nc5ccc(C(F)(F)F)cn5)CC4)cc3)sc2C1	human CCR6 (Homo sapiens)	100 to 10000 nM

Query: IC50; subject: Nc1n[nH]c2ncc(-c3ccc(S(=O)(=O)N4CCC(Nc5ccc(C(F)(F)F)cn5)CC4)cc3)nc12
5 to 100 nM

Query: IC50; subject: CN1CCC2(CCN(c3ccc(S(=O)(=O)N4CCC(Nc5ccc(C(F)(F)F)cn5)CC4)cc3)CC2)C1=O
5 to 100 nM

----------
Entries annotated with measured IC50
# TESTED_ON: human CCR6 (Homo sapiens)
# EXPERIMENT_SUMMARY: Migration (chemotaxis) assay, hCCR6-transfected Ba/F3 cells toward CCL20
# TEST_CONDITIONS: hCCR6-transfected Ba/F3 cells in human serum; recombinant human CCL20 10 nM; 37° C. 45 minutes; read-out: Potency (IC50 value in the migration assay)

Completed entries (count: 5):
COMPOUND	IC50
O=C1NCCC12CCN(c1ccc(S(=O)(=O)N3CCC(Nc4ccc(C(F)(F)F)cn4)CC3)cc1)CC2 [Example 1.172]	< 5 nM
NC(=O)CC1CN(c2ccc(S(=O)(=O)N3CCC(Nc4ccc(C(F)(F)F)cn4)CC3)cc2)C1	100 to 10000 nM
O=C1Cc2cc(-c3ccc(S(=O)(=O)N4CCC(Nc5ccc(C(F)(F)F)cc5)CC4)cc3)ccc2N1	5 to 100 nM
CC(=O)NC1CCN(c2ccc(S(=O)(=O)N3CCC(Nc4ccc(C(F)(F)F)cn4)CC3)cc2)CC1	5 to 100 nM
O=C1CCc2ccc(-c3ccc(S(=O)(=O)N4CCC(Nc5ccc(C(F)(F)F)cn5)CC4)cc3)cc2N1	5 to 100 nM

Requested read-out IC50, target or system human CCR6 (Homo sapiens), entry O=C1COC2(CCN(c3ccc(S(=O)(=O)N4CCC(Nc5ccc(C(F)(F)F)cn5)CC4)cc3)CC2)CN1
5 to 100 nM

Requested read-out IC50, target or system human CCR6 (Homo sapiens), entry O=C1c2ccc(-c3ccc(S(=O)(=O)N4CCC(Nc5ccc(C(F)(F)F)cn5)CC4)cc3)cc2CN1CCO
5 to 100 nM

----------
# TESTED_ON: human CCR6 (Homo sapiens, UniProt P51684)
# Sequence (P51684 whole entry): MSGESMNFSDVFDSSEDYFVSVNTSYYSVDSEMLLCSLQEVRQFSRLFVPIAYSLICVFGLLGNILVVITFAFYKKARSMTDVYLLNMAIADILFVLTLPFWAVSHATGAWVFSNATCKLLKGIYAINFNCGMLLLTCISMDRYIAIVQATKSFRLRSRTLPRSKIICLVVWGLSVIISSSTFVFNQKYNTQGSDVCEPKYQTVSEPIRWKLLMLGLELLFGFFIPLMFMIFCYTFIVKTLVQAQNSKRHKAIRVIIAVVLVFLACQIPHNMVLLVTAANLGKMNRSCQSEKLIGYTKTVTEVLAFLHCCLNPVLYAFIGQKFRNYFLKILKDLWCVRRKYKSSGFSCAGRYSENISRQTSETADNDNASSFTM
# EXPERIMENT_SUMMARY: Migration (chemotaxis) assay, hCCR6-transfected Ba/F3 cells toward CCL20
# TEST_CONDITIONS: hCCR6-transfected Ba/F3 cells in human serum; recombinant human CCL20 10 nM; 37° C. 45 minutes; read-out: Potency (IC50 value in the migration assay)
MEASURED_ENDPOINT: IC50

Completed entries (count: 5):
COMPOUND	RESULT
O=S(=O)(c1ccc(-c2nc3c(s2)CNCC3)cc1)N1CCC(Nc2ccc(C(F)(F)F)cn2)CC1 [Example 1.106]	100 to 10000 nM
O=c1[nH]c2ccc(-c3ccc(S(=O)(=O)N4CCC(Nc5ccc(C(F)(F)F)cn5)CC4)cc3)cc2n1C1CC1 [Example 1.052]	5 to 100 nM
CC(=O)N[C@H]1CCN(c2ccc(S(=O)(=O)N3CCC(Nc4ccc(C(F)(F)F)cn4)CC3)cc2)C1 [Example 1.192]	100 to 10000 nM
CC(=O)N1CCC(c2ccc(S(=O)(=O)N3CCC(Nc4ccc(C(F)(F)F)cn4)CC3)cc2)CC1 [Example 1.184]	5 to 100 nM
O=S(=O)(c1ccc(-c2cnc3[nH]ccc3c2F)cc1)N1CCC(Nc2ccc(C(F)(F)F)cn2)CC1 [Example 1.030]	< 5 nM

Query: IC50; subject: NC(=O)c1ccc(-c2ccc(S(=O)(=O)N3CCC(Nc4ccc(C(F)(F)F)cn4)CC3)cc2)c2cc[nH]c12 [Example 1.061]
5 to 100 nM

Query: IC50; subject: N#Cc1c(N)[nH]c2ccc(-c3ccc(S(=O)(=O)N4CCC(Nc5ccc(C(F)(F)F)cn5)CC4)cc3)cc12 [Example 1.099]
< 5 nM

----------
Entries annotated with measured pIC50
# TESTED_ON: human CCR6 (Homo sapiens, UniProt P51684)
# EXPERIMENT_SUMMARY: Migration (chemotaxis) assay, hCCR6-transfected Ba/F3 cells toward CCL20
# TEST_CONDITIONS: hCCR6-transfected Ba/F3 cells in human serum; recombinant human CCL20 10 nM; 37° C. 45 minutes; read-out: Potency (IC50 value in the migration assay)
pIC50: −log10 of the molar value.

STRUCTURE_AS_SMILES	pIC50
N#Cc1cn(CCN)c2ncc(-c3ccc(S(=O)(=O)N4CCC(Nc5ccc(C(F)(F)F)cn5)CC4)cc3)cc12	7.00 to 8.30

Requested read-out pIC50, target or system human CCR6 (Homo sapiens, UniProt P51684), entry Cc1nc2[nH]ccc2cc1-c1ccc(S(=O)(=O)N2CCC(Nc3ccc(C(F)(F)F)cn3)CC2)cc1
> 8.30

Requested read-out pIC50, target or system human CCR6 (Homo sapiens, UniProt P51684), entry O=c1[nH]c2ccc(-c3ccc(S(=O)(=O)N4CCC(Nc5ccc(C(F)(F)F)cn5)CC4)cc3)cc2o1
> 8.30

Requested read-out pIC50, target or system human CCR6 (Homo sapiens, UniProt P51684), entry CN(C)CCn1cc(C#N)c2cc(-c3ccc(S(=O)(=O)N4CCC(Nc5ccc(C(F)(F)F)cn5)CC4)cc3)cnc21
7.00 to 8.30

----------
Entries annotated with measured IC50
# TESTED_ON: human CCR6 (Homo sapiens, UniProt P51684)
# EXPERIMENT_SUMMARY: Migration (chemotaxis) assay, hCCR6-transfected Ba/F3 cells toward CCL20
# TEST_CONDITIONS: hCCR6-transfected Ba/F3 cells in human serum; recombinant human CCL20 10 nM; 37° C. 45 minutes; read-out: Potency (IC50 value in the migration assay)

Requested read-out IC50, target or system human CCR6 (Homo sapiens, UniProt P51684), entry CC(=O)N1CCCC(c2ccc(S(=O)(=O)N3CCC(Nc4ccc(C(F)(F)F)cn4)CC3)cc2)C1 (stereo not drawn)
5 to 100 nM

Requested read-out IC50, target or system human CCR6 (Homo sapiens, UniProt P51684), entry CS(=O)(=O)N1CCCN(c2ccc(S(=O)(=O)N3CCC(Nc4ccc(C(F)(F)F)cn4)CC3)cc2)CC1
100 to 10000 nM

Requested read-out IC50, target or system human CCR6 (Homo sapiens, UniProt P51684), entry NC(=O)N[C@H]1CCN(c2ccc(S(=O)(=O)N3CCC(Nc4ccc(C(F)(F)F)cn4)CC3)cc2)C1
100 to 10000 nM

Requested read-out IC50, target or system human CCR6 (Homo sapiens, UniProt P51684), entry NC(=O)NCC1CCN(c2ccc(S(=O)(=O)N3CCC(Nc4ccc(C(F)(F)F)cn4)CC3)cc2)CC1
< 5 nM

Requested read-out IC50, target or system human CCR6 (Homo sapiens, UniProt P51684), entry NC(=O)c1n[nH]c2ccc(-c3ccc(S(=O)(=O)N4CCC(Nc5ccc(C(F)(F)F)cn5)CC4)cc3)cc12
< 5 nM

Requested read-out IC50, target or system human CCR6 (Homo sapiens, UniProt P51684), entry O=C1NCCC12CCN(c1ccc(S(=O)(=O)N3CCC(Nc4ccc(C(F)(F)F)cn4)CC3)cc1)CC2 [Example 1.153]
5 to 100 nM

Requested read-out IC50, target or system human CCR6 (Homo sapiens, UniProt P51684), entry NC(=O)N1CCCC(c2ccc(S(=O)(=O)N3CCC(Nc4ccc(C(F)(F)F)cn4)CC3)cc2)C1 (stereo not drawn)
5 to 100 nM

Requested read-out IC50, target or system human CCR6 (Homo sapiens, UniProt P51684), entry O=S(=O)(c1ccc(N2CC[C@H](O)C2)cc1)N1CCC(Nc2ccc(C(F)(F)F)cn2)CC1
100 to 10000 nM

Requested read-out IC50, target or system human CCR6 (Homo sapiens, UniProt P51684), entry O=S(=O)(c1ccc(-c2ccnc3[nH]ccc23)cc1)N1CCC(Nc2ccc(C(F)(F)F)cn2)CC1
5 to 100 nM
